Hey, just so you know, these numbers are from ChEMBL document CHEMBL4311982.

test-target: Coagulation factor IX (Homo sapiens)
Sequence (P00740 47-191 limits assumed): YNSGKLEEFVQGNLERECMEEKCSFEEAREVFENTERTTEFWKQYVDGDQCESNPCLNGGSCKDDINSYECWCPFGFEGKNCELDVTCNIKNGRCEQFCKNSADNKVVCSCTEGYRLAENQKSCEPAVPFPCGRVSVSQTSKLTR
Sequence (P00740 227-461 limits assumed): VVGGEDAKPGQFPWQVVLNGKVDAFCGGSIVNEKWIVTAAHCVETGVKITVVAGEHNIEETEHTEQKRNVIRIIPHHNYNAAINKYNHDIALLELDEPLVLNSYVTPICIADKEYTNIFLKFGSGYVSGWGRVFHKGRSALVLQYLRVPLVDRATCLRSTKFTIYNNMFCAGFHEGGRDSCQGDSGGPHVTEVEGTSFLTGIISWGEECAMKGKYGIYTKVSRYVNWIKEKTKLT
experimental-details: Inhibition of human activated Factor IX using spectrozyme F IXa as substrate incubated for 15 mins followed by substrate addition and measured after 1 hr by chromogenic assay
pKi: −log10 of the molar value.
We begin with a simple list: items and their reported pKi.

smiles-text	test-target	pKi
CCOC(=O)[C@]1(C)CCC[C@@]2(C)[C@@H]3CC[C@@]4(C)C[C@]3(CC[C@@H]21)C/C4=N\OCC1(C)COC1	Coagulation factor IX (Homo sapiens)	5.32
CCOC(=O)[C@]1(C)CCC[C@@]2(C)[C@@H]3CC[C@@]4(C)C[C@]3(CC[C@@H]21)C/C4=N\OCc1ccsc1	Coagulation factor IX (Homo sapiens)	4.71

* * *

Readings of bioavailability for the listed compounds
experimental-details: Oral bioavailability in Wistar rat at 22 umol/kg measured upto 24 hrs by LC-MS/MS analysis
Type: ADME, organism-based
reported-conditions: in vivo

smiles-text	bioavailability
O=C(NC[C@H]1CN(c2ccc(N3CCOCC3=O)cc2)C(=O)O1)c1ccc(Cl)s1	59.7%
CCOC(=O)[C@]1(C)CCC[C@@]2(C)[C@@H]3CC[C@@]4(C)C[C@]3(CC[C@@H]21)C/C4=N\OCc1ccsc1	48.6%
CCOC(=O)[C@]1(C)CCC[C@@]2(C)[C@@H]3CC[C@@]4(C)C[C@]3(CC[C@@H]21)C/C4=N\OCC1(C)COC1	42.7%

* * *

test-target: Coagulation factor VII (Homo sapiens, UniProt P08709)
Sequence (P08709 61-212 limits assumed): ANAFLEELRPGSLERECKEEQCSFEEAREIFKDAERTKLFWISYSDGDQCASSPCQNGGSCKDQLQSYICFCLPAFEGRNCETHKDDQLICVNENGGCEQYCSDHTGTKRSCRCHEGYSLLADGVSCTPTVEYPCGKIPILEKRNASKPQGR
Sequence (P08709 213-466 limits assumed): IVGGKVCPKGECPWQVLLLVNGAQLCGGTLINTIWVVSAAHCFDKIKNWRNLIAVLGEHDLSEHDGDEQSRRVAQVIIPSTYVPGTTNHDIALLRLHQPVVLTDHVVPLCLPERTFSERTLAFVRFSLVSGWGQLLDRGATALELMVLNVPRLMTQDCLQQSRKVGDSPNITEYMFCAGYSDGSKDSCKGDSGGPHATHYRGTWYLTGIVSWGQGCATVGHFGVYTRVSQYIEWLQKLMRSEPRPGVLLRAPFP
experimental-details: Inhibition of human activated Factor VII using S-2288 as substrate incubated for 15 mins followed by substrate addition and measured after 1 hr by chromogenic assay
Some compounds, each annotated with its measured Ki.

smiles-text	Ki, µM
CCOC(=O)[C@]1(C)CCC[C@@]2(C)[C@@H]3CC[C@@]4(C)C[C@]3(CC[C@@H]21)C/C4=N\OCC1(C)COC1	7.99
CCOC(=O)[C@]1(C)CCC[C@@]2(C)[C@@H]3CC[C@@]4(C)C[C@]3(CC[C@@H]21)C/C4=N\OCc1ccsc1	11.6

* * *

Notes on Ki obtained with Tissue-type plasminogen activator (Homo sapiens, UniProt P00750).
Sequence (P00750 whole entry): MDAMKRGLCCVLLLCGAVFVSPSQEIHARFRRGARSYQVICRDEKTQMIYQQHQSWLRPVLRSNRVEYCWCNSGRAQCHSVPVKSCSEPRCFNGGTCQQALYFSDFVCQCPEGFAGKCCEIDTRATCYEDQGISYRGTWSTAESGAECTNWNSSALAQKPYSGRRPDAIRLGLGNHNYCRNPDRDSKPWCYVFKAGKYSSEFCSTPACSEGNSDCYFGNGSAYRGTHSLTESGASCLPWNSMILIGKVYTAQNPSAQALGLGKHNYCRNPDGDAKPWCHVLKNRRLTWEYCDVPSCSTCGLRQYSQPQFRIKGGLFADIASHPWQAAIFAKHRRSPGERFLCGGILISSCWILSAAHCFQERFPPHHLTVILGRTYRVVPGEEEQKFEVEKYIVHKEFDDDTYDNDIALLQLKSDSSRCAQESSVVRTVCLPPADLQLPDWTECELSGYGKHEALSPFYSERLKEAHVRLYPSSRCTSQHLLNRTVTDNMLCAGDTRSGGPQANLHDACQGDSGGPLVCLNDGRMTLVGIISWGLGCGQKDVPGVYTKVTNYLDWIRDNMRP

smiles-text	test-target	Ki (µM)
CCOC(=O)[C@]1(C)CCC[C@@]2(C)[C@@H]3CC[C@@]4(C)C[C@]3(CC[C@@H]21)C/C4=N\OCC1(C)COC1	Tissue-type plasminogen activator (Homo sapiens, UniProt P00750)	2.83
CCOC(=O)[C@]1(C)CCC[C@@]2(C)[C@@H]3CC[C@@]4(C)C[C@]3(CC[C@@H]21)C/C4=N\OCc1ccsc1	Tissue-type plasminogen activator (Homo sapiens, UniProt P00750)	3.53

* * *

test-target: Coagulation factor X (Homo sapiens, UniProt P00742)
Sequence (P00742 41-179 limits assumed): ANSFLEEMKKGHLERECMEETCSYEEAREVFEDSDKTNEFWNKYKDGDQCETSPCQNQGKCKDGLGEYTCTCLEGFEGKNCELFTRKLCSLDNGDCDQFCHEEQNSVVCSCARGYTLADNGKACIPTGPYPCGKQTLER
Sequence (P00742 235-488 limits assumed): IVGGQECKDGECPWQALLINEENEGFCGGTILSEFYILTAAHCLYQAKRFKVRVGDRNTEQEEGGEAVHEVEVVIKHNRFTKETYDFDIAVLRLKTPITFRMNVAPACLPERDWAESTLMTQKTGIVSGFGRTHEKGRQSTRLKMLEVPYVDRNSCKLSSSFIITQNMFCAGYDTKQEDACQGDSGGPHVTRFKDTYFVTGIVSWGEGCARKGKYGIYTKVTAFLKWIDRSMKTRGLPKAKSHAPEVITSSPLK
experimental-details: Inhibition of human activated Factor X using S-2765 as substrate incubated for 15 mins followed by substrate addition and measured after 1 hr by chromogenic assay
pKi: −log10 of the molar value.
Some molecules, each annotated with its measured pKi.

smiles-text	pKi
CCOC(=O)[C@]1(C)CCC[C@@]2(C)[C@@H]3CC[C@@]4(C)C[C@]3(CC[C@@H]21)C/C4=N\OC/C=C/c1ccccc1	4.97
CCOC(=O)[C@]1(C)CCC[C@@]2(C)[C@@H]3CC[C@@]4(C)C[C@]3(CC[C@@H]21)C/C4=N\OC/C=C/c1ccc2ncccc2c1	5.38
CCOC(=O)[C@]1(C)CCC[C@@]2(C)[C@@H]3CC[C@@]4(C)C[C@]3(CC[C@@H]21)C/C4=N\OC1CCOCC1	5.74
CCOC(=O)[C@]1(C)CCC[C@@]2(C)[C@@H]3CC[C@@]4(C)C[C@]3(CC[C@@H]21)C[C@H]4O	4.60

* * *

Species: Rattus norvegicus
Entries and their TT values follow.

smiles-text	unit-abbreviation	TT
C[C@@]12CC[C@@H]3[C@@](CC[C@H]4[C@@]3(C)CCC[C@@]4(C)C(=O)O)(C/C1=N/O)C2	min	12.9
CCOC(=O)[C@]1(C)CCC[C@@]2(C)[C@@H]3CC[C@@]4(C)C[C@]3(CC[C@@H]21)C[C@H]4O	min	9.4
O=C(NC[C@H]1CN(c2ccc(N3CCOCC3=O)cc2)C(=O)O1)c1ccc(Cl)s1	min	23.4
C[C@@]12CC[C@@H]3[C@@](CC[C@H]4[C@@]3(C)CCC[C@@]4(C)C(=O)O)(CC1=O)C2	min	17.2
CCOC(=O)[C@]1(C)CCC[C@@]2(C)[C@@H]3CC[C@@]4(C)C[C@]3(CC[C@@H]21)CC4=O	min	14.9
CCOC(=O)[C@]1(C)CCC[C@@]2(C)[C@@H]3CC[C@@]4(C)C[C@]3(CC[C@@H]21)C/C4=N/O	min	18.9

* * *

pKi: −log10 of the molar value.
As a worked illustration, we turn to pKi data collected for Urokinase-type plasminogen activator (Homo sapiens).

smiles-text	pKi
CCOC(=O)[C@]1(C)CCC[C@@]2(C)[C@@H]3CC[C@@]4(C)C[C@]3(CC[C@@H]21)C/C4=N\OCC1(C)COC1	5.69
CCOC(=O)[C@]1(C)CCC[C@@]2(C)[C@@H]3CC[C@@]4(C)C[C@]3(CC[C@@H]21)C/C4=N\OCc1ccsc1	5.35

* * *

test-target: Coagulation factor X (Homo sapiens, UniProt P00742)
experimental-details: Inhibition of human activated Factor X using S-2765 as substrate incubated for 15 mins followed by substrate addition and measured after 1 hr by chromogenic assay

smiles-text	test-target	Ki [µM]
CCOC(=O)[C@]1(C)CCC[C@@]2(C)[C@@H]3CC[C@@]4(C)C[C@]3(CC[C@@H]21)C/C4=N\OCc1c(C)noc1C	Coagulation factor X (Homo sapiens, UniProt P00742)	2.88
CCOC(=O)[C@]1(C)CCC[C@@]2(C)[C@@H]3CC[C@@]4(C)C[C@]3(CC[C@@H]21)C/C4=N\OCc1cc(C)nn1C	Coagulation factor X (Homo sapiens, UniProt P00742)	4.03
CCOC(=O)[C@]1(C)CCC[C@@]2(C)[C@@H]3CC[C@@]4(C)C[C@]3(CC[C@@H]21)C/C4=N\OC/C=C/c1ccc2occc2c1	Coagulation factor X (Homo sapiens, UniProt P00742)	10.3
CCOC(=O)[C@]1(C)CCC[C@@]2(C)[C@@H]3CC[C@@]4(C)C[C@]3(CC[C@@H]21)C/C4=N\OCc1ccc(OC(F)(F)F)cc1	Coagulation factor X (Homo sapiens, UniProt P00742)	1.02
CCOC(=O)[C@]1(C)CCC[C@@]2(C)[C@@H]3CC[C@@]4(C)C[C@]3(CC[C@@H]21)C/C4=N\OCc1c(F)c(F)c(F)c(F)c1F	Coagulation factor X (Homo sapiens, UniProt P00742)	0.321
CCOC(=O)[C@]1(C)CCC[C@@]2(C)[C@@H]3CC[C@@]4(C)C[C@]3(CC[C@@H]21)C/C4=N\OCc1cccc(Cl)c1	Coagulation factor X (Homo sapiens, UniProt P00742)	18.1

* * *

test-target: Coagulation factor X (Homo sapiens, UniProt P00742)
experimental-details: Inhibition of human activated Factor X using S-2765 as substrate incubated for 15 mins followed by substrate addition and measured after 1 hr by chromogenic assay

smiles-text	Ki / µM
C[C@@]12CC[C@@H]3[C@@](CC[C@H]4[C@@]3(C)CCC[C@@]4(C)C(=O)O)(C[C@H]1O)C2	27.6
CCOC(=O)[C@]1(C)CCC[C@@]2(C)[C@@H]3CC[C@@]4(C)C[C@]3(CC[C@@H]21)C/C4=N\OC/C=C/c1ccc(C(C)=O)cc1	1.64
CCOC(=O)[C@]1(C)CCC[C@@]2(C)[C@@H]3CC[C@@]4(C)C[C@]3(CC[C@@H]21)C/C4=N\OC/C=C/c1cccc(C(F)(F)F)c1	4.86
CCOC(=O)[C@]1(C)CCC[C@@]2(C)[C@@H]3CC[C@@]4(C)C[C@]3(CC[C@@H]21)C/C4=N\OC/C=C/c1ccc(OC(F)(F)F)cc1	1.97
CCOC(=O)[C@]1(C)CCC[C@@]2(C)[C@@H]3CC[C@@]4(C)C[C@]3(CC[C@@H]21)C/C4=N\OCc1ccc(Cl)c(F)c1	9.79
CCOC(=O)[C@]1(C)CCC[C@@]2(C)[C@@H]3CC[C@@]4(C)C[C@]3(CC[C@@H]21)C/C4=N\OCc1cnc(Cl)s1	1.94

* * *

experimental-details: MRT in Wistar rat at 22 umol/kg, po measured upto 24 hrs by LC-MS/MS analysis
Type: ADME, organism-based
reported-conditions: in vivo
compounds and their reported MRT
parameter: MRT

compound	recorded-value
O=C(NC[C@H]1CN(c2ccc(N3CCOCC3=O)cc2)C(=O)O1)c1ccc(Cl)s1 [RIVAROXABAN]	5.4 h
CCOC(=O)[C@]1(C)CCC[C@@]2(C)[C@@H]3CC[C@@]4(C)C[C@]3(CC[C@@H]21)C/C4=N\OCc1ccsc1	4.1 h
CCOC(=O)[C@]1(C)CCC[C@@]2(C)[C@@H]3CC[C@@]4(C)C[C@]3(CC[C@@H]21)C/C4=N\OCC1(C)COC1	5.6 h
